I'd be grateful if you could share measured normalized growth for these entries.
Assay: chemical genetic growth profiling, strain panel (AID 1159580);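 further: tested at 20 µM; growth read once vehicle control cultures reached saturation at 30 °C; 1 = growth at the plate median or of vehicle wells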
Details: S. cerevisiae deletion strains, growth OD, locus YOR144C, strain elg1, active compounds read low
Out of some 5,500 compounds screened, about 2,000 (36%) were called active. Inconclusive results (about 18%) are left out. The list shows a part of the results.

Which normalized growth is listed for COc1ccccc1OCC(O)CO (configuration not stated) ?
0.993 (inactive)

// query: CC(C)CC1NC(=O)CNC1=O (configuration not stated)
0.978 (inactive)

Try this molecule too: O=C(O)c1cccnc1
0.995 (inactive)

Then CCN1CCN(C(=O)NC(C(=O)N[C@@H]2C(=O)N3[C@@H]2SC(C)(C)[C@@H]3C(=O)O)c2ccccc2)C(=O)C1=O (some centres not stated) ?
1.01 (inactive)

Again, but for CC(=O)Oc1ccc(O)cc1
1.03 (inactive)

Now consider CCCN(CCC)S(=O)(=O)c1ccc(C(=O)O)cc1 .
1.01 (inactive)

Entry Nc1ccc(S(=O)(=O)NC(=O)c2ccccc2)cc1 please
1.01 (inactive)

Queued: CC(=O)N[C@@H](Cc1c[nH]c2ccccc12)C(N)=O
0.995 (inactive)

Same for CC(=O)Oc1ccc(/C=C/c2cc(OC(C)=O)cc(OC(C)=O)c2)cc1
1.01 (inactive)

Let us now turn to N[C@@H](CCC(=O)N[C@@H](CS)C(=O)NCC(=O)O)C(=O)O
0.995 (inactive)

And CS(=O)(=O)Nc1ccc([N+](=O)[O-])cc1Oc1ccccc1 ?
0.981 (inactive)

Also COc1cc(C/C=C/c2ccccc2)c(OC)cc1O , if possible.
0.971 (inactive)

###

Assay: chemical genetic growth profiling, strain panel (AID 1159580)
Details: S. cerevisiae deletion strains, growth OD, locus YKR026C, strain gcn3, active compounds read low
The campaign covered roughly 5,500 compounds. About 2,000 (36%) were called active. Not shown: some 18% with an inconclusive outcome. This is one part of the list.
// assign TRUE if normalized growth falls strictly below 1, else FALSE (ties count as FALSE)

Bench note: check whether CC(=O)OCC(=O)[C@@]1(O)[C@H](C)CC2C3CCC4=CC(=O)C=C[C@]4(C)[C@@]3(F)[C@@H](O)C[C@@]21C (stereo not given in full) shows normalized growth below 1
TRUE

Now give it for CC(CCC(=O)O)[C@H]1CCC2C3CC[C@@H]4C[C@H](O)CC[C@]4(C)C3C=C[C@@]21C (stereo not given in full) too.
FALSE

###

Experiment: chemical genetic growth profiling, strain panel (AID 1159580)
Conditions: S. cerevisiae deletion strains, growth OD, locus YJR075W, strain HOC1, active compounds read low
The whole screen tested about 5,500 compounds, of which about 2,000 (36%) were called active. Not shown: some 18% with an inconclusive outcome. The list shows a part of the results.
Assignment: determine reported normalized growth for the given compounds.
Would you mind answering with just the numeric figure?

So what's the measured normalized growth for this one? CCCc1cc(=O)oc2c1c(C)nn2-c1ccccc1
0.869

Also need CS(=O)(=O)c1ccc([C@@H](O)[C@@H](CO)NC(=O)C(Cl)Cl)cc1 , thanks.
0.983

Check NCCCCCCNS(=O)(=O)c1cccc2c(Cl)cccc12 too.
1.02

Subsequent entry: CCCc1cc(=O)oc2cc(OCC(=O)OCC)ccc12
0.972

Also, COC(=O)c1ccc(S(=O)(=O)N2CCC(C(N)=O)CC2)n1C please.
0.988

Next compound up: CC(=O)c1ccc(O)c(CC=C(C)C)c1
0.947

Then O=C(O)C1C2CCC1C(O)C2 (stereo not given) ?
1.02

Queued: OC[C@H]1O[C@@H](O[C@H]2[C@H](O)[C@@H](O)[C@@H](O)O[C@@H]2CO)[C@H](O)[C@@H](O)[C@@H]1O
1.02

// same read-out, input: CC(C)=CCc1c2c(c3occ(-c4ccc(O)c(O)c4)c(=O)c3c1O)C=CC(C)(C)O2
0.468

What would you report for CS(=O)(=O)Nc1ccc([N+](=O)[O-])cc1Oc1ccccc1 ?
1

Now consider CC(C)=CCc1c2c(c3occ(-c4ccc(O)cc4)c(=O)c3c1O)C=CC(C)(C)O2 and answer again.
0.852

Now this one: CC(C)CC(NC(=O)OCC1c2ccccc2-c2ccccc21)C(=O)O (stereo not given)
0.997

Then this compound: CN[C@@H]1[C@H](O)[C@H](NC)[C@H]2O[C@@]3(O)C(=O)C[C@@H](C)O[C@H]3O[C@@H]2[C@H]1O
1.01

How about this compound: Cc1cc(=O)[nH]c(=S)[nH]1
1.02

What about this compound? CCCc1cc(=O)[nH]c(=S)[nH]1
1.02

Repeat for the following compound: CC(=O)O[C@@H]1C=C[C@@]2(C)C(C[C@@H](OC(C)=O)[C@@]3(C)C4=CC(=O)O[C@@H](c5ccoc5)[C@]4(C)CCC23)C1(C)C (stereo not given in full)
1.03

Okay, and COc1ccc([C@@H]2CC(=O)c3c(O)cc(O[C@@H]4O[C@H](CO[C@H]5O[C@@H](C)[C@H](O)[C@@H](O)[C@H]5O)[C@@H](O)[C@H](O)[C@H]4O)cc3O2)cc1O ?
1

Ok, now C=C/C(C)=C/[C@@]1(C)SC(=O)C(C)=C1O
1

c1ccc(CN2CCC(n3nnc4cccnc43)CC2)cc1 , same question.
1

Let us now turn to CCN1CCN(C(=O)NC(C(=O)N[C@@H]2C(=O)N3[C@@H]2SC(C)(C)[C@@H]3C(=O)O)c2ccccc2)C(=O)C1=O (stereo not given in full)
1.01

###

Assay: chemical genetic growth profiling, strain panel (AID 1159580);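 further: tested at 20 µM; growth read once vehicle control cultures reached saturation at 30 °C; 1 = growth at the plate median or of vehicle wells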
Conditions: S. cerevisiae deletion strains, growth OD, locus YNL020C, strain ARK1, active compounds read low
The whole screen tested about 5,500 compounds, of which about 2,000 (36%) were called active. About 18% were inconclusive and are not listed. The list shows a part of the results.
Note to self: normalized growth under 0.9 means label 1, ties and anything higher get label 0.

Answer whether the compound N#CSCC(=O)c1ccccc1 has normalized growth strictly less than 0.9
label 1

What about Cc1nn(-c2cccc(Cl)c2)c2oc(=O)cc(C(F)(F)F)c12 ?
label 1

Repeat for the following compound: COc1c(Br)csc1C(=O)O/N=C(/N)c1cc(C(F)(F)F)cc(C(F)(F)F)c1
label 0

Again, but for Cc1ccc2nc(-c3ccc4c(c3)OCCO4)cn2c1
label 0

O=C1c2cccc3c(Sc4ccccc4)ccc(c23)C(=O)N1NCCO ?
label 1

How about this compound: NC(=S)N/N=C1/CCCc2ccccc21
label 1

Now the compound Cc1cc(/C(N)=N\OC(=O)C(C)(C)C)cc(/C(N)=N\OC(=O)C(C)(C)C)c1
label 0

Proceed to Cc1ccc(-n2cccc2)c(NS(=O)(=O)c2ccc(-c3ccno3)s2)c1
label 0

###

Test: chemical genetic growth profiling, strain panel (AID 1159580);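 further: tested at 20 µM; growth read once vehicle control cultures reached saturation at 30 °C; 1 = growth at the plate median or of vehicle wells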
Details: S. cerevisiae deletion strains, growth OD, locus YJL095W, strain BCK1, active compounds read low
Among all 5,500 compounds or so, about 2,000 (36%) were called active. Inconclusive results (about 18%) are left out. The list shows a part of the results.
MEASURED PROPERTY: normalized growth
Just the number, please, no unit after it.

// returns reported normalized growth for input O=C1c2cccc3c(Sc4ccccc4)ccc(c23)C(=O)N1NCCO
0.771

For OC(COc1ccc(F)cc1)(c1ccc(Cl)cc1)c1ccc(Cl)cc1 then?
1.08

How about CC(C)C[C@@H](CN)CC(=O)O ?
0.989

Now try NC(COCc1ccccc1)C(=O)O (stereo unspecified) .
0.995

Try this compound next: COC(=O)c1c(OC)cc2c(c1C)Oc1c(Cl)c(OC(C)=O)c(Cl)c(C)c1C(=O)O2
1.02

// query: CC(=O)Oc1c(Cl)c(C)c2c(c1Cl)OC(=O)c1c(C)c(Cl)c(OC(C)=O)c(Cl)c1O2
0.802

Moving on to N#CSCC(=O)c1ccccc1
0.101

And the next one, COc1c(C)c2c(c(C)c1Cl)Oc1c(Cl)c(OC)c(Cl)c(C)c1C(=O)O2 ?
1.02

Field entry: C[n+]1ccccc1/C=N/O
1.01

Item: O=C(OOC(=O)c1ccccc1)c1ccccc1
0.812

Input CC1=CCCC2C1(C)CCC(C)C2(C)CC/C(C)=C/C[n+]1cn(C)c2c(N)ncnc21 (stereo unspecified)
0.971

###

Assay: chemical genetic growth profiling, strain panel (AID 1159580);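 further: tested at 20 µM; growth read once vehicle control cultures reached saturation at 30 °C; 1 = growth at the plate median or of vehicle wells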
Conditions: S. cerevisiae deletion strains, growth OD, locus YJL157C, strain FAR1
The whole screen tested about 5,500 compounds, of which about 2,000 (36%) were called active. Not shown: some 18% with an inconclusive outcome. Cut-off read from the data, not from the text of the source: active = normalized growth mostly below about 0.91 (no sharp cut-off); inconclusive = no clear call, values can overlap the other calls; inactive = mostly above about 0.92. This is one part of the list.
In this exercise, the only acceptable responses are active, inactive

Field: outcome | Entry: Cc1ccc(-n2cccc2)c(NS(=O)(=O)c2ccc(-c3ccno3)s2)c1
inactive

Also need Cc1onc(-c2c(F)cccc2Cl)c1/C(N)=N\OC(=O)c1ccc(C(C)(C)C)cc1 , thanks.
inactive

Can you handle CC(C)(C)c1cc(C(=O)Nc2ccc3c(c2)OCO3)n(Cc2ccc(F)cc2)n1 next?
inactive

Now the same for C#CCSC1=NNC(c2ccccn2)S1 (stereo unspecified)
active

Now consider O=C(NOC(=O)c1ccccc1)c1ccccc1 .
active

Also check Cc1nn(-c2cccc(Cl)c2)c2oc(=O)cc(C(F)(F)F)c12
active

Lookup O=C1c2cccc3c(Sc4ccccc4)ccc(c23)C(=O)N1NCCO
inactive

Quick one: CC(=O)c1ccc(Cl)c(N=Cc2cc(Cl)cc(Cl)c2O)c1
active

Next entry: Cc1ccc2nc(-c3ccc4c(c3)OCCO4)cn2c1
inactive

And the next one, CCOC(=O)/C(C#N)=C(\Nc1ccc(C(=O)OCC)cc1)SC ?
inactive

Please give the result for O=S(=O)(Oc1ccc(-c2csnn2)cc1)c1ccccc1Cl too.
inactive

Another compound: CSc1n[nH]c(-c2cc(C(C)(C)C)oc2C)c1C#N
inactive

Cc1c(C)c(C)c(C(=O)c2ccc(N=Cc3cc(Cl)cc(Cl)c3O)cc2)c(C)c1C ?
active

What about O=S(=O)(Nc1ccccc1Oc1ccccc1)c1ccc(-c2ccno2)s1 ?
inactive

And the next one, Cc1ccc(-c2csc(-c3ccncc3)n2)cc1 ?
inactive

For Cc1cc(/C(N)=N\OC(=O)C(C)(C)C)cc(/C(N)=N\OC(=O)C(C)(C)C)c1 then?
inactive

Could you do the same for COC(=O)c1sccc1NS(=O)(=O)c1cc(Cl)cc(Cl)c1 , please?
inactive

What would you report for O=C(CSC1=NNC(c2ccccn2)S1)Nc1ccccc1 (stereo unspecified) ?
inactive

Similarly, OC(COc1ccc(F)cc1)(c1ccc(Cl)cc1)c1ccc(Cl)cc1 ?
inactive

Thanks! And NC(=S)N/N=C1/CCCc2ccccc21 ?
inactive

Brc1ccc(-c2csc(-c3ccncc3)n2)cc1 ?
inactive
